Listing of recorded log10 of AC50 by entry.
# EXPERIMENTAL SYSTEM: SHP2 (Homo sapiens, UniProt Q06124)
# Sequence (Q06124 whole entry): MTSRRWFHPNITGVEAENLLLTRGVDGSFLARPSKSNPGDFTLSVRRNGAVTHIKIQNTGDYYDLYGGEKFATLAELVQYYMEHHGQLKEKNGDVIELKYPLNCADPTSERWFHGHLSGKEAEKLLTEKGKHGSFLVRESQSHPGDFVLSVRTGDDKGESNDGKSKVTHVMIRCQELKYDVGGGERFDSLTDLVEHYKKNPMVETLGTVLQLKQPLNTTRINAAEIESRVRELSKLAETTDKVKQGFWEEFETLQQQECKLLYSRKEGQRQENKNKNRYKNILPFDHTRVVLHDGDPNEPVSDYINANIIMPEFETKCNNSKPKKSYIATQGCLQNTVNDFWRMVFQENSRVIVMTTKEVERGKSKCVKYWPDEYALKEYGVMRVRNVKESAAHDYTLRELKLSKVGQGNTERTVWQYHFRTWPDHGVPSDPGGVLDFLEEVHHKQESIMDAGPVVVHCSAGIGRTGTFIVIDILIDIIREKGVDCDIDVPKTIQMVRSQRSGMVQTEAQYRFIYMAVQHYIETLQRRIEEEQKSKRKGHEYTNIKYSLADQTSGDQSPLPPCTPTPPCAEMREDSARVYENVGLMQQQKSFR
# ASSAY NOTES: SHP2 Allosteric Inhibition Assay
# Type: biochemical
# EXPERIMENTAL CONTEXT: 0.5 nM SHP2 activated with 0.5 μM peptide IRS1_pY1172(dPEG8)pY1222; surrogate substrate DiFMUP, prompt fluorescence, 25° C.
QUANTITY KIND: log10 of AC50 (log10 of the value in µM)

# MOLECULE, log10 of AC50
measured = [
    ("N[C@@H]1CCCC12CCN(c1cnc(Sc3ccc(OC(F)(F)F)cc3)cn1)CC2", -1.08),
    ("CCCC1(N)CCN(c2cnc(Sc3ccnc(N)c3Cl)cn2)CC1", -1.50),
    ("N[C@@H]1CCCC12CCN(c1cnc(Sc3cccc(C4CC4)c3)cn1)CC2", -1.47),
    ("Nc1cc(Sc2cnc(N3CCC4(CC3)C[C@H](F)C[C@H]4N)cn2)c(Cl)c(Cl)n1", -0.84),
    ("N[C@@H]1CCCC12CCN(c1cnc(Sc3cccc(NC(=O)C4CC4)c3)cn1)CC2", -1.11),
    ("CC1(O)C[C@@H](N)C2(CCN(c3cnc(Sc4ccnc(N)c4Cl)cn3)CC2)C1 (stereo partly shown) [Example 41]", -1.55),
    ("C[C@@H]1OCC2(CCN(c3cnc(Sc4ccncc4F)cn3)CC2)[C@@H]1N", -1.46),
    ("Nc1cc(Sc2cnc(N3CCC4(CC3)C[C@H](O)C[C@H]4N)cn2)c(Cl)c(Cl)n1", -2.22),
    ("N[C@@H]1CCCC12CCN(c1cnc(Sc3cccc(Cl)c3Cl)cn1)CC2", -1.13),
    ("C[C@@H]1OCC2(CCN(c3cnc(Sc4ccnc(C(F)(F)F)c4)cn3)CC2)[C@@H]1N", -1.73),
    ("CC1(CN)CCN(c2cnc(Sc3ccnc(N)c3Cl)cn2)CC1O (single isomer, unassigned) [Example 51]", -1.14),
    ("CC(=O)c1cccc(Sc2cnc(N3CCC4(CCC[C@H]4N)CC3)cn2)c1", -0.86),
    ("Cc1ccccc1Sc1cnc(N2CCC3(CCC[C@H]3N)CC2)cn1", -1.35),
]

Value source: patent US10287266B2
